target: native human MET on living human cells (human, UniProt P08581 25-1390); experiment: cell-based or functional assay
Sequence (P08581 25-1390): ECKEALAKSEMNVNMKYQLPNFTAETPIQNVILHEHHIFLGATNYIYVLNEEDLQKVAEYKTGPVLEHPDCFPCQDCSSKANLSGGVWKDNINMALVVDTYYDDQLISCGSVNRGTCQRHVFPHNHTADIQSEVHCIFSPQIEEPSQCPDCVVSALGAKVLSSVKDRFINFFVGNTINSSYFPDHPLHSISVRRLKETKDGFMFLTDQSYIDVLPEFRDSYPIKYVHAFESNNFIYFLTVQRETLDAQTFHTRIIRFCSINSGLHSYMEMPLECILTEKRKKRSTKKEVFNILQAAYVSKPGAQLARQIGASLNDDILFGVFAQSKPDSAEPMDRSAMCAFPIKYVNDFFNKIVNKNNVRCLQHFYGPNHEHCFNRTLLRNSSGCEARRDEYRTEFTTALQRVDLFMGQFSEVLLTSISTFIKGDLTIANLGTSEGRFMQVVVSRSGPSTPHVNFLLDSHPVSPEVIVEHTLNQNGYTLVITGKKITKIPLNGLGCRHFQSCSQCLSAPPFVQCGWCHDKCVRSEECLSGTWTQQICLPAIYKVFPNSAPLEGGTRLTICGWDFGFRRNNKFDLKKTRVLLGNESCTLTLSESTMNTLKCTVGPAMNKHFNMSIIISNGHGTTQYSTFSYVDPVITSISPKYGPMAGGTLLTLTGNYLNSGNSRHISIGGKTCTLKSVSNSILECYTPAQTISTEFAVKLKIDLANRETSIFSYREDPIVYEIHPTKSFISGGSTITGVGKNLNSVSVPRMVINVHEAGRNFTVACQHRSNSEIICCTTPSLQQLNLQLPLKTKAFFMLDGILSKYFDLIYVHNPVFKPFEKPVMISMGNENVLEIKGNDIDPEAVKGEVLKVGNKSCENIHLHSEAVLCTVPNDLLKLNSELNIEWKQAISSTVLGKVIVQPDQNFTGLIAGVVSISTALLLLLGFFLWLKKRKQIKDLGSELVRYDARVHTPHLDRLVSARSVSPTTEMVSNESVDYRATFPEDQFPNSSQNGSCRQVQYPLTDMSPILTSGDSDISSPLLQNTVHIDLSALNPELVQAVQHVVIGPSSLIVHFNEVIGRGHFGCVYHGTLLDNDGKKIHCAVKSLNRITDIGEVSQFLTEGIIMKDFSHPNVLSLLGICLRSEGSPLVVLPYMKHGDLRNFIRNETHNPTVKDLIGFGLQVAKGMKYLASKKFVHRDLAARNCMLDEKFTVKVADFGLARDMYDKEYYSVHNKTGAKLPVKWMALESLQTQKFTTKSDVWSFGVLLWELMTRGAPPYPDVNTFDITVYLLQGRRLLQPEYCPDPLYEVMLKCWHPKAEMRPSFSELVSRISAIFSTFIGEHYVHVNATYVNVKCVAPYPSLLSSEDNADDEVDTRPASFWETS
# protection from staurosporine, viability EC50, MCF10A per record follows
Measurement Type: protection from staurosporine, viability EC50, MCF10A (nM)

Binder	Reading Qualifier	Result Value
chimeric llama-human IgG1 mAb 76G7 (antibody, V domains shown) VH: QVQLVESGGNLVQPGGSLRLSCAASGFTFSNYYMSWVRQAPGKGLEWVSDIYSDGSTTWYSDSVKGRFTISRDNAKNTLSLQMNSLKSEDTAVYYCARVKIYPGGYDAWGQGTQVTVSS VL: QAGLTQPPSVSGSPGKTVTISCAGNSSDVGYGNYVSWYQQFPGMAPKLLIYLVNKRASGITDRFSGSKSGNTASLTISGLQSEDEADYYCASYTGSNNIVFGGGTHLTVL	=	25.4
chimeric llama-human IgG1 mAb 71G3 (antibody, V domains shown) VH: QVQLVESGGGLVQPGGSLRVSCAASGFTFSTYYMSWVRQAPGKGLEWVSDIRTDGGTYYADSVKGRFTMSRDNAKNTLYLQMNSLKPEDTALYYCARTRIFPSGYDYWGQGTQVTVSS VL: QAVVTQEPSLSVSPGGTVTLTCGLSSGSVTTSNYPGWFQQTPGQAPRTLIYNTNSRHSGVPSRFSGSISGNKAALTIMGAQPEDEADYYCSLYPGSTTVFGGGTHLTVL	=	5.04
chimeric llama-human IgG1 mAb 71A3 (antibody, V domains shown) VH: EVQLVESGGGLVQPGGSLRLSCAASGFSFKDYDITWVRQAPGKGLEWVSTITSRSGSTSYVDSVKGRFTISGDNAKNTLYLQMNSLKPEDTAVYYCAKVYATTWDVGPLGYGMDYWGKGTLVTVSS VL: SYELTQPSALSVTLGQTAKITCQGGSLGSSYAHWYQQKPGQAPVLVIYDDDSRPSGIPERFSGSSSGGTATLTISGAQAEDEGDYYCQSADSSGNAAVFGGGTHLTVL	<	0.5
